Quick reference for IC50 among some binders
- TGT: T1, recombinant human PD-1 Fc chimera (human, UniProt Q15116 25-167)
- T1 construct: Bought protein; also called human PD-1-huFc; huPD-1-Fc; not shown: human Fc
- TEST_NAME: HTRF inhibition; strep-tagged PD-L1 vs PD-1-Fc

Humabody® 1.5 (VHH, human VH single domain antibody) VHH: EVQLVESGGGLVKPGGSLRLSCAASGFTFSDYTMTWMRQAPGKGLEWVSYISTGGNTKYYTDSVKGRFTISRDNAKNSLYLQMNSLRADDTAVYYCAREAPLRLGESPHDAFDIWGQGTMVTVSS | 2.66 nM

--- query ---
Humabody® 1.2 (VHH, human VH single domain antibody) VHH: EVQLLESGGGLVKPGGSLRLSCAASGFTFSDYTMTWMRQAPGKGLEWVSYISTGGSIKYYTDSVKGRFTISRDNAKNSLYLQMNSLRADDTAVYYCAREAPLRLGESPHDAFDIWGQGTMVTVSS yielded IC50 of 13 nM
